Target: Enoyl-[acyl-carrier-protein] reductase [NADH] (Mycobacterium tuberculosis, UniProt P9WGR1, S94A)
Assay: Inhibition of Mycobacterium tuberculosis InhA S94A mutant
parameter: pKi
The quantity pKi is defined as the negative base-10 logarithm of the molar concentration.

Notebook: NC(=O)c1c[n+]([C@@H]2O[C@H](COP(=O)(O)OP(=O)(O)OC[C@H]3O[C@@H](n4cnc5c(N)ncnc54)[C@H](O)[C@@H]3O)[C@@H](O)[C@H]2O)ccc1C(=O)c1ccncc1 , pKi read as 6.76

###

Target: Enoyl-[acyl-carrier-protein] reductase [NADH] (Mycobacterium tuberculosis, UniProt P9WGR1, I215A)
Assay: biochemical
parameter: Ki (nM)
Unit nM implied. Number only.

Entry CCCCCCc1ccc(Oc2ccccc2C)c(O)c1 — recorded Ki = 114

###

Molecular target: Enoyl-[acyl-carrier-protein] reductase [NADH] (Mycobacterium tuberculosis, UniProt P9WGR1, S94A)
Assay: Inhibition of Mycobacterium tuberculosis InhA S94A mutant
parameter: IC50 (nM)
Please respond with the number in nM and leave the unit unwritten.

// recorded IC50 for NC(=O)c1c[n+]([C@@H]2O[C@H](COP(=O)(O)OP(=O)(O)OC[C@H]3O[C@@H](n4cnc5c(N)ncnc54)[C@H](O)[C@@H]3O)[C@@H](O)[C@H]2O)ccc1C(=O)c1ccncc1 : 323

###

Molecular target: Enoyl-[acyl-carrier-protein] reductase [NADH] (Mycobacterium tuberculosis, UniProt P9WGR1, T2A)
Assay: Inhibition of Mycobacterium tuberculosis InhA T2A mutant
parameter: pKi
Field pKi (float): negative decimal logarithm of the concentration in molar.

compound NC(=O)c1c[n+]([C@@H]2O[C@H](COP(=O)(O)OP(=O)(O)OC[C@H]3O[C@@H](n4cnc5c(N)ncnc54)[C@H](O)[C@@H]3O)[C@@H](O)[C@H]2O)ccc1C(=O)c1ccncc1 , pKi observed: 8.30

###

Biological target: Enoyl-[acyl-carrier-protein] reductase [NADH] (Mycobacterium tuberculosis, UniProt P9WGR1, D2A)
Experiment: Inhibition of Mycobacterium tuberculosis InhA D2A mutant
parameter: pKi
# pKi is unitless: minus log10 of the molar concentration; print number only

The compound listed as NC(=O)c1c[n+]([C@@H]2O[C@H](COP(=O)(O)OP(=O)(O)OC[C@H]3O[C@@H](n4cnc5c(N)ncnc54)[C@H](O)[C@@H]3O)[C@@H](O)[C@H]2O)ccc1C(=O)c1ccncc1 has a reported pKi of 6.76

###

Molecular target: Enoyl-[acyl-carrier-protein] reductase [NADH] (Mycobacterium tuberculosis, UniProt P9WGR1, T2A)
Test: Inhibition of Mycobacterium tuberculosis InhA T2A mutant
parameter: pIC50
Units for pIC50: none; it is -log10 of a concentration expressed in mol/L.

Measured pIC50 of NC(=O)c1c[n+]([C@@H]2O[C@H](COP(=O)(O)OP(=O)(O)OC[C@H]3O[C@@H](n4cnc5c(N)ncnc54)[C@H](O)[C@@H]3O)[C@@H](O)[C@H]2O)ccc1C(=O)c1ccncc1 : 7.72

###

Biological target: Enoyl-[acyl-carrier-protein] reductase [NADH] (Mycobacterium tuberculosis, UniProt P9WGR1, D2A)
Test: Inhibition of Mycobacterium tuberculosis InhA D2A mutant
parameter: pIC50
Lab note — pIC50 values are minus log10 of concentrations in M.

Looking up NC(=O)c1c[n+]([C@@H]2O[C@H](COP(=O)(O)OP(=O)(O)OC[C@H]3O[C@@H](n4cnc5c(N)ncnc54)[C@H](O)[C@@H]3O)[C@@H](O)[C@H]2O)ccc1C(=O)c1ccncc1 , I see its pIC50 listed as 6.49

###

Target: Enoyl-[acyl-carrier-protein] reductase [NADH] (Mycobacterium tuberculosis, UniProt P9WGR1, I21V)
Experiment: Inhibition of Mycobacterium tuberculosis InhA I21V mutant using trans-2-decenoyl-CoA as substrate by spectrophotometric analysis
parameter: pKi
Scale for pKi: -log10 of concentration given in mol/L; no unit attached.

The recorded pKi for NC(=O)c1c[n+]([C@@H]2O[C@H](COP(=O)(O)OP(=O)(O)OC[C@H]3O[C@@H](n4cnc5c(N)ncnc54)[C@H](O)[C@@H]3O)[C@@H](O)[C@H]2O)ccc1C(=O)c1ccncc1 is 8.68
